Assay: Hepatic clearance in human liver microsomes at 1 uM preincubated for 5 mins followed by NADPH addition and measured after 45 mins by LC/MS/MS analysis
Assay type: ADME, microsome
Binary label based on CLhep predicted at 1 µM with cut-off 10 mL/min/kg: below gives T, not below gives F.

O=C(N[C@@H](Cn1ccnc1)c1ccc(-c2ccccc2)cc1Cl)c1ccc(-c2nnc(-c3ccccc3)o2)cc1; F
[2H]c1c([2H])c([2H])c(-c2ccc([C@H](Cn3ccnc3)NC(=O)c3ccc(-c4nnc(-c5ccccc5)o4)cc3)c(Cl)c2)c([2H])c1[2H]; F
O=C(N[C@@H](Cn1ccnc1)c1ccc(-c2ccc(F)cc2)cc1F)c1ccc(-c2nnc(-c3ccccc3)o2)cc1; F
O=C(N[C@@H](Cn1ccnc1)c1ccc(-c2ccc(F)cc2)cc1Cl)c1ccc(-c2nnc(-c3ccccn3)o2)cc1; F

# input Given `CS(=O)(=O)c1ccc(-c2ccc([C@H](Cn3ccnc3)NC(=O)c3ccc(-c4nnc(-c5ccccc5)o4)cc3)c(Cl)c2)cc1` , is recorded CLhep predicted at 1 µM strictly lower than 10 mL/min/kg?
# output T

# input Given `O=C(N[C@@H](Cn1ccnc1)c1ccc(-c2ccc(F)cc2)cc1Cl)c1ccc(-c2nnc(-c3ccncc3)o2)cc1` , is recorded CLhep predicted at 1 µM strictly lower than 10 mL/min/kg?
# output F

# input Given `O=C(N[C@@H](Cn1ccnc1)c1ccc(-c2ccc(F)cc2)cc1Cl)c1ccc(-c2nnc(-c3ccccc3)o2)cc1` , is recorded CLhep predicted at 1 µM strictly lower than 10 mL/min/kg?
# output T

* * *

Catalogue of concentration at 4 h values
Assay: Drug uptake in BALB/c mouse lungs at 25 mg/kg, po via gavage measured after 4 hrs post dose by […]
Format: ADME, organism-based, Lung
Conditions: read-out: Drug uptake
Provide the reading as a plain figure in µM.

Worked cases, concentration at 4 h given:
O=C(N[C@@H](Cn1ccnc1)c1c(F)cc(-c2ccc(F)cc2)cc1F)c1ccc(-c2nnc(-c3ccccc3)o2)cc1; 57
O=C(N[C@@H](Cn1ccnc1)c1ccc(-c2ccc(F)cc2)cc1F)c1ccc(-c2nnc(-c3ccccc3)o2)cc1; 74
O=C(N[C@@H](Cn1ccnc1)c1ccc(-c2ccc(F)cc2)cc1Cl)c1ccc(-c2nnc(-c3ccccc3)o2)cc1; 18

Could you now look at the following compound, please?
Recorded result, `O=C(N[C@@H](Cn1ccnc1)c1ccc(-c2ccc(F)cc2)cc1Cl)c1ccc(-c2nnc(-c3ccccn3)o2)cc1` , concentration at 4 h: 0.6

* * *

Assay: Drug uptake in BALB/c mouse blood at 25 mg/kg, po via gavage measured after 4 hrs post dose by […]
Format: ADME, organism-based
Conditions: read-out: Drug uptake
READOUT LABEL: concentration at 4 h (µM)
Provide the reading as a plain figure in µM.

O=C(N[C@@H](Cn1ccnc1)c1ccc(Cl)cc1Cl)c1ccc(-c2nnc(-c3ccc(OCC(F)(F)F)cc3F)o2)cc1; 3
O=C(N[C@@H](Cn1ccnc1)c1ccc(Cl)cc1Cl)c1ccc(-c2nnc(-c3ccc(F)c(F)c3)o2)cc1; 36
O=C(N[C@@H](Cn1ccnc1)c1ccc(-c2ccc(F)cc2)cc1F)c1ccc(-c2nnc(-c3ccccc3)o2)cc1; 22

Recorded result, `O=C(N[C@@H](Cn1ccnc1)c1c(F)cc(-c2ccc(F)cc2)cc1F)c1ccc(-c2nnc(-c3ccccc3)o2)cc1` , concentration at 4 h: 25
